Tested on: HS 578T breast
Test: NCI-60 one-dose screen, 48 h (100 = growth as untreated, 0 = no growth, -100 = all killed)
Settings: 10 µM unless noted
Description: Growth inhibition of the HS 578T human tumor cell line is measured as a screen for anti-cancer activity. Cells are grown in 96 well plates and exposed to the test compound for 48 hours. Compounds are tested at a single concentration, which is 10^-5 M for most compounds. The reported endpoint is percent growth (GI% or GIPRCNT), where numbers from 0 - 100% represent growth inhibition, and numbers from -100% - 0 represent cell death. For example, a value of 40 represents 60% growth inhibition. […]
The panel holds about 83,000 compounds, 20% with a hit somewhere; the sample as a whole holds those more often.
Measured metric: growth (%)
Answers are plain numbers, in %.

Parameter requested: growth. Apply to each item below.
1. O=C(Nc1ccc(Br)cc1F)c1cc(Cl)ccc1O
2. Cc1ccccc1CNC(=O)C1CN(c2ccc(Cl)cc2)N(c2ccc(Cl)cc2)C1=O (stereo unspecified)
3. COc1ccc(Br)c(/C=C2\SC(=Nc3ccc(O)cc3)NC2=O)c1
4. COc1ccc(/C=C2\CCC/C(=C\c3ccc(OC)c(OC)c3)C2=O)cc1OC
5. COc1ccc2oc(=O)cc(Cn3cc(Cn4cnc5c4c(=O)n(C)c(=O)n5C)nn3)c2c1

A.
1. 7.7
2. 85.5
3. 86.5
4. 41.2
5. 97.8

Q. Which value of growth has been reported for O=C(COc1cc(O)c2c(=O)cc(-c3ccccc3)oc2c1)Nc1ccccc1 in the records?
A. 80.3
